Where do these numbers come from? They come from ChEMBL document CHEMBL1201862.

test system: K562; test: NCI tumour cell line growth inhibition, 48 h
The source made the active and inactive calls. Cut-off read from the data, not from the text of the source: active = GI50 up to about 1.1 µM and inactive = higher.
endpoint name: GI50

Asked: // lookup GI50 for `CCOC(=O)NC(=O)c1cn(CCCCCCOC(=O)NCCCCCCNC(=O)OCCCCCCn2cc(C(=O)NC(=O)OCC)c(=O)[nH]c2=O)c(=O)[nH]c1=O`
Given back: > 100 µM (inactive)

Asked: And `C/C(=N\NC(=O)C(N)=O)c1c(O)cc(C)oc1=O` ?
Given back: > 100 µM (inactive)

Asked: And `O=C1C(c2ccccc2)=C(c2ccccc2)C(c2ccc(-c3ccc(C4=C(c5ccccc5)C(=O)C(c5ccccc5)=C4c4ccccc4)cc3)cc2)=C1c1ccccc1` ?
Given back: > 100 µM (inactive)

Asked: And `Oc1ccc(N=C2CCC(=C(c3ccccc3)c3ccc(Nc4ccc(O)cc4)cc3)CC2)cc1` ?
Given back: > 100 µM (inactive)

Asked: And `N#CCc1nc(Cc2ccccc2)n[nH]1` ?
Given back: > 100 µM (inactive)

Asked: And `COC(=O)c1c(O)ccc2c1c1c(n2Cc2cc(OC)cc(OC)c2)C(=O)c2ccccc2C1` ?
Given back: 66.8 µM (inactive)

Asked: And `COC(=O)C1=C(CCC[C@H](C)O[Si](C)(C)C(C)(C)C)NC(=O)N2[C@@H](CCO)CC[C@H]12` ?
Given back: 6.92 µM (inactive)

Asked: And CCOC(=O)C1(C/C=C\CBr)CCCCCCCCCCC1=O (centres undefined) ?
Given back: 3.95 µM (inactive)

Asked: And COc1ccc(OC)c(C2CCc3nc4nc(N)nc(N)c4cc3C2)c1 (centres undefined) ?
Given back: 2.31 µM (inactive)

Asked: And CCCC1CCC(=C2C(=O)CCC2=O)O1 (centres undefined) ?
Given back: > 100 µM (inactive)

Asked: And CCSC(=O)N1c2ccc(OC)cc2C=CC1C#N (centres undefined) ?
Given back: 0.00632 µM (active)

Asked: And CC1=NN(C(=O)CC(=O)Nc2ccccc2Cl)C(=O)C1/N=N\c1ccc(S(=O)(=O)c2ccc(/N=N/C3C(=O)N(C(=O)CC(=O)Nc4ccccc4Cl)N=C3C)cc2)cc1 (centres undefined) ?
Given back: > 100 µM (inactive)

Asked: And `O=C(Nc1ccn(CCOC(=O)c2ccccc2)c(=O)n1)c1ccccc1` ?
Given back: > 100 µM (inactive)

Asked: And COc1ccc(C2C(C=O)C(N3CCN(C)CC3)=Nc3nc4ccccc4n32)cc1 (centres undefined) ?
Given back: 1.08 µM (active)

Asked: And `O=C1c2ccccc2-c2nnc(-c3ccc(Cl)cc3)cc21` ?
Given back: > 10 µM (inactive)

Asked: And `COC(OC)(c1ccccc1)C(Br)Br` ?
Given back: 13.9 µM (inactive)

Asked: And O=C1NN=C(O)C2C3c4ccccc4C(c4ccccc43)C12 (centres undefined) ?
Given back: > 100 µM (inactive)

Asked: And CC(C)c1c(O)ccc2c1CCC1C(C)(C)CCCC21C (centres undefined) ?
Given back: 21.6 µM (inactive)

Asked: And `CCCCNC(=NC#N)NCCCC` ?
Given back: > 100 µM (inactive)

Asked: And `CCOC(=O)c1c(SC(=O)c2cc(OC)c(OC)c(OC)c2)n(-c2ccccc2)c(=S)n(-c2ccccc2)c1=O` ?
Given back: > 100 µM (inactive)

Asked: And CC(NC(=O)C(N)CC(=O)O)NC(=O)C1CCC1 (centres undefined) ?
Given back: > 100 µM (inactive)

Asked: And `C[n+]1cn(-c2nc3ccccc3nc2[N-]S(=O)(=O)c2ccccc2)c2ccccc21` ?
Given back: > 100 µM (inactive)

Asked: And `COc1ccc2c(c1OC)C(=O)C2` ?
Given back: > 10 µM (inactive)

Asked: And `CC1=CC(=O)C(=C(C)C)CC1` ?
Given back: > 100 µM (inactive)

###

system: HT-29; assay: NCI tumour cell line growth inhibition, 48 h
Active and inactive are the calls of the source. Cut-off read from the data, not from the text of the source: active = GI50 up to about 1.1 µM and inactive = higher.
Field: GI50. Provide a value for each of the compounds that follow.

Asked: // lookup GI50 for `CC(=O)OCc1nc(C#N)c(N)o1`
Given back: > 100 µM (inactive)

Asked: And CC1C(=O)C(C)C(c2ccccc2)N(C)C1c1ccccc1 (centres undefined) ?
Given back: 28.6 µM (inactive)

Asked: And `CC(C)OP(=O)(CCCCCCCCC/C=C/c1ccc2c(c1)OCCOCCOCCOCCO2)OC(C)C` ?
Given back: 3.05 µM (inactive)

Asked: And `CSc1ccc(-c2cc(-c3nc4ccccc4[nH]3)no2)cc1` ?
Given back: 24.8 µM (inactive)

Asked: And `CC(=O)Oc1ccn2nc(C)c(Cc3c(C)nn4ccc(OC(C)=O)cc34)c2c1` ?
Given back: > 100 µM (inactive)

Asked: And `CC(=O)O[C@H]1CC[C@@]2(C)C(=CC[C@@H]3[C@@H]2CC[C@]2(C)c4c(C)n[nH]c4C[C@@H]32)C1` ?
Given back: 10.3 µM (inactive)

Asked: And `CC(C)(C)OC(=O)CN1CCNCCN(CC(=O)OC(C)(C)C)CCNCC1` ?
Given back: 33.3 µM (inactive)

Asked: And CC1=NN(C(=O)CC(=O)Nc2ccccc2Cl)C(=O)C1/N=N\c1ccc(S(=O)(=O)c2ccc(/N=N/C3C(=O)N(C(=O)CC(=O)Nc4ccccc4Cl)N=C3C)cc2)cc1 (centres undefined) ?
Given back: > 100 µM (inactive)

Asked: And `NNC(=O)c1c(SCc2ccccc2)nc2c3ccccc3ccn12` ?
Given back: 16.5 µM (inactive)

###

test system: CAKI-1; experiment: NCI tumour cell line growth inhibition, 48 h
Active and inactive are the calls of the source. Cut-off read from the data, not from the text of the source: active = GI50 up to about 1.1 µM and inactive = higher.
endpoint name: GI50

Asked: Query the reported GI50 for CAKI-1; item: COc1cc(Br)c(CC2NCCc3cc(OC)c(OC)cc32)cc1OC (stereo unspecified)
Given back: 68.7 µM (inactive)

Asked: And COC(=O)C(Cc1ccc(OC)cc1O)NC(=O)OC(C)(C)C (stereo unspecified) ?
Given back: > 100 µM (inactive)

Asked: And C=C1CC(Cn2cc(C)c(=O)[nH]c2=O)(c2ccc(-c3ccccc3)cc2)OC1=O (stereo unspecified) ?
Given back: 1.55 µM (inactive)

Asked: And `CN(CCNC(=O)c1c[nH]c2c1Cc1ccccc1-2)CCNC(=O)c1c[nH]c2c1Cc1ccccc1-2` ?
Given back: 48.6 µM (inactive)

Asked: And `O=C(O)/C=C/C(=O)N1Cc2cc3ccccc3nc2C1` ?
Given back: > 100 µM (inactive)

Asked: And `Cn1cnc2c1c(=O)n(CCNCCO)c(=O)n2C` ?
Given back: > 100 µM (inactive)

###

test system: SF-295; experiment: NCI tumour cell line growth inhibition, 48 h
The source made the active and inactive calls. Cut-off read from the data, not from the text of the source: active = GI50 up to about 1.1 µM and inactive = higher.
endpoint name: GI50

Asked: // lookup GI50 for Cc1ccc(S(=O)(=O)NC(C(=O)O)C(C)C)cc1 (stereo not given)
Given back: > 100 µM (inactive)

Asked: And `CCC[N+](C)(C)CCCNC(=O)c1c(O)c2ccccc2[nH]c1=O` ?
Given back: > 100 µM (inactive)

Asked: And `CC(=O)Oc1ccn2nc(C)c(Cc3c(C)nn4ccc(OC(C)=O)cc34)c2c1` ?
Given back: 23 µM (inactive)

Asked: And CCSC(=O)N1c2ccc(OC)cc2C=CC1C#N (stereo not given) ?
Given back: 0.00405 µM (active)

Asked: And COc1cc(Br)c(CC2NCCc3cc(OC)c(OC)cc32)cc1OC (stereo not given) ?
Given back: 12 µM (inactive)

###

system: UACC-257; assay: NCI tumour cell line growth inhibition, 48 h
Activity calls are given as the source filed them. Rule as the data show it: active = GI50 up to about 1.1 µM and inactive = higher.
Your reply should match one of these outcome classes. Yes for active, No for inactive

Asked: Fill in: this test's call for CNC(=O)/C=C/C1=CN2C(=O)c3ccc(C)c(O)c3NC(OC)C2C1 (stereo not given) is ___
Given back: Yes

Asked: And CCOC(=O)C1C=C2O[C@@H]3OC4(CCCCC4)O[C@@H]3C2[C@H]2C(=O)C=CC(=O)[C@@]12C(=O)OC (stereo not given in full) ?
Given back: No

Asked: And `CCOP(=O)(OCC)/C(=C\n1ccc(=O)[nH]c1=S)C(=O)OC` ?
Given back: No

Asked: And CO[C@H]1C=CO[C@@]2(C)Oc3c(C)c(O)c4c(O)c(c(CN5CCN(C)CC5)c(O)c4c3C2=O)NC(=O)/C(C)=C\C=C[C@H](C)[C@H](O)C(C)[C@@H](O)C(C)[C@H](OC(C)=O)[C@@H]1C (stereo not given in full) ?
Given back: No

Asked: And `O=C(c1ccccc1)c1c(-c2ccccc2)n(-c2ccccc2)[nH]c(=O)c1=O` ?
Given back: No

Asked: And `O=C1c2ccccc2C(=O)c2sc(Nc3ccccc3Cl)nc21` ?
Given back: No

Asked: And `C[C@@H](Br)[C@@H]1CC[C@H]2c3[nH]c4ccccc4c3CCN2C1` ?
Given back: No

Asked: And `O=S(=O)(O)c1ccc(Nc2ccnc3ccccc23)cc1` ?
Given back: No

Asked: And `O=C1c2ccccc2S(=O)(=O)c2ccccc21` ?
Given back: No

Asked: And C#CCNC(CS)C(=O)O (stereo not given) ?
Given back: No
